target system: WT mouse TRPV3 (Mus musculus, UniProt Q8K424)
Sequence (Q8K424 whole entry): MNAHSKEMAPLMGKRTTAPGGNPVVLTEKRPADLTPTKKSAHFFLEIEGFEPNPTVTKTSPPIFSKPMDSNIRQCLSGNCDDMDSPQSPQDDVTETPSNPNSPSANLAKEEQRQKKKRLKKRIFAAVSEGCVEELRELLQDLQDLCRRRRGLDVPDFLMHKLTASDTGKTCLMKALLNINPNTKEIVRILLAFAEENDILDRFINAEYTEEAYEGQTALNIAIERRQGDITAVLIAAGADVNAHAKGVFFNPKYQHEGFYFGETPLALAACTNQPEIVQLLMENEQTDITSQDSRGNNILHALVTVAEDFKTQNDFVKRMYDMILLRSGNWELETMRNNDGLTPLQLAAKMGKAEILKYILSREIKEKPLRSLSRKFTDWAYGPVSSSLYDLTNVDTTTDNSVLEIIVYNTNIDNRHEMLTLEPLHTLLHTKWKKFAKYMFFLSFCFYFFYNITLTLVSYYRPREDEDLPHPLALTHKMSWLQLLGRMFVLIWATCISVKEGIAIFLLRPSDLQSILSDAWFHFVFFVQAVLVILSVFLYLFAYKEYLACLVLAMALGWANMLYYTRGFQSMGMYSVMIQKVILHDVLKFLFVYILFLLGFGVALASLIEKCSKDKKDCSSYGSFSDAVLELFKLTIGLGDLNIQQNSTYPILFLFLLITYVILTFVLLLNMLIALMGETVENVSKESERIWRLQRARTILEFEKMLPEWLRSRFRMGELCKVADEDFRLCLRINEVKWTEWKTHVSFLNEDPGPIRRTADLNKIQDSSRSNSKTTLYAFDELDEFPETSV
condition label: -60 mV, room temperature, Hill fit; read-out: apparent affinity (EC50) for activation by 2-APB
parameter: EC50 (µM)
One number for each entry, in µM.

Input NCCOB(c1ccccc1)c1ccccc1 [2-APB, 2-aminoethoxydiphenyl borate] , output reported EC50.
464

====

target system: TRPV3-V587L (Mus musculus, UniProt Q8K424, V587L)
condition label: read-out: apparent affinity (EC50) for activation by 2-APB; -60 mV, room temperature, Hill fit
parameter: EC50 (µM)
Numbers only, in µM.

// fetch EC50 given entry NCCOB(c1ccccc1)c1ccccc1 [2-APB, 2-aminoethoxydiphenyl borate]
443
